Taken from ChEMBL document CHEMBL1275550.

Let's look at some compounds and their measured Activity.
Tested on: Escherichia coli
Assay: Antimicrobial activity against Non-ESBL Escherichia coli assessed as intermediate isolate by broth microdilution method
Type: functional
Reply with just the number (in %).

Solved entries:
Query (compound): C[C@@H](O)[C@H]1C(=O)N2C(C(=O)O)=C(S[C@@H]3CN[C@H](C(=O)N(C)C)C3)[C@H](C)[C@H]12 [MEROPENEM] ; field requested: Activity
0

Query (compound): CO/N=C(\C(=O)N[C@@H]1C(=O)N2C(C(=O)[O-])=C(C[N+]3(C)CCCC3)CS[C@H]12)c1csc(N)n1 ; field requested: Activity
0.1

Query (compound): CC(C)(O/N=C(\C(=O)N[C@@H]1C(=O)N2C(C(=O)[O-])=C(C[n+]3ccccc3)CS[C@H]12)c1csc(N)n1)C(=O)O [CEFTAZIDIME] ; field requested: Activity
0.5

Query (compound): C[C@@H](O)[C@H]1C(=O)N2C(C(=O)O)=C(SCCNC=N)C[C@H]12 [IMIPENEM ANHYDROUS] ; field requested: Activity
0

// next item, Activity requested
Query (compound): CO/N=C(\C(=O)N[C@@H]1C(=O)N2C(C(=O)O)=C(CSc3nc(=O)c(O)nn3C)CS[C@H]12)c1csc(N)n1 [CEFTRIAXONE] ; field requested: Activity
1.1
